This collection of values is drawn from patent US12098154B2.

Molecular target: CDK7/CycH (Homo sapiens, UniProt P50613)
Sequence (P50613 whole entry): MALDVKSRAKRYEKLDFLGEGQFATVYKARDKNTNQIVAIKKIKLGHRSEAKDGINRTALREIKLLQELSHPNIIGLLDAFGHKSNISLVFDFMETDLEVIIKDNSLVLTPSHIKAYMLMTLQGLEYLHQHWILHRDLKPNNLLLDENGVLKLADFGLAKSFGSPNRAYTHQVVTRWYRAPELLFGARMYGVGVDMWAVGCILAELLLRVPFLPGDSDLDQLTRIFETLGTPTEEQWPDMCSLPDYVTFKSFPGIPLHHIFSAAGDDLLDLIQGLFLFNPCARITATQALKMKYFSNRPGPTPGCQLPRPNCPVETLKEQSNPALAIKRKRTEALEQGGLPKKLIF
Sequence (P51946 whole entry partner): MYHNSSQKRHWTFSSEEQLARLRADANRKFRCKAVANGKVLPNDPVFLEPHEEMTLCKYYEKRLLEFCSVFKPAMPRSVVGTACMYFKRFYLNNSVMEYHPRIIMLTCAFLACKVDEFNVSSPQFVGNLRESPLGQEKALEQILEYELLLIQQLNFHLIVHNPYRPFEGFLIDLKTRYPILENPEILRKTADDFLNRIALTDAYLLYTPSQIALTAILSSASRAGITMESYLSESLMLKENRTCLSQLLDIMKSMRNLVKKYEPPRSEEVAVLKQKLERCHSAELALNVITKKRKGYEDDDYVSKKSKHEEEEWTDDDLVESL
Assay: CDK7/CycH inhibition (Tables A1, A2)
pIC50: −log10 of the molar value.
# if value of pIC50 reaches 6, tag 1.0; if it stays below, tag 0.0

These solved cases illustrate the format of a correct answer.
C=CC(=O)Nc1ccc(C(=O)Nc2cccc(Nc3nc(N4CCCCC4CCO)nc4c3ncn4C(C)C)c2)cc1 (centres unmarked) = 1.0
C=CC(=O)Nc1cccc(Nc2cc(N3CCCC[C@@H]3CCO)nc3c(CC)cnn23)c1 = 0.0
C=CC(=O)N[C@H]1CC[C@H](Nc2cc(N3CCCC[C@H]3CCO)nc3c(CC)cnn23)CC1 = 1.0
C=CC(=O)Nc1cccc(CNc2cc(N3CCCC[C@@H]3CCO)nc3c(CC)cnn23)c1 = 1.0
CC(C)n1cnc2c(Nc3cccc(NC(=O)/C=C/CN(C)C)c3)nc(N[C@H]3CC[C@H](N(C)C)CC3)nc21 = 1.0

Would you kindly look at the next entry?
Given C=CC(=O)Nc1ccc(Nc2cc(N3CCCC[C@H]3CCO)nc3c(CC)cnn23)cc1 , state whether its pIC50 is at least 6.
1.0

---

As shown below, each of these compounds has a reported pIC50 value.
Biological target: CDK7/CycH (Homo sapiens)
Assay: CDK7/CycH inhibition (Tables A1, A2)
Notebook: values listed as pIC50 are -log10 of the concentration (mol/L).

May I ask what pIC50 has been recorded for CCc1cnn2c(Nc3cccc(NC(=O)c4ccc(NC(=O)/C=C/CN(C)C)cc4)c3)cc(N3CCCC(N)C3)nc12 (stereo not shown) [THZ-4-128-1] ?
7.33

---

As shown below, each of these molecules has a reported IC50 value.
Target: CDK2/CycA (Homo sapiens, UniProt P24941)
Assay: CDK2/CycA inhibition (Tables A1, A2)

C=CC(=O)Nc1ccc(C(=O)N2CCCC(Nc3cc(N4CCCC(N)C4)nc4c(CC)cnn34)C2)cc1 (stereo not drawn) = > 1000 nM
C=CC(=O)Nc1ccc(C(=O)N2CCCC(Nc3nc(N4CCCCC4CCO)nc4c3ncn4C(C)C)C2)cc1 (stereo not drawn) = > 1000 nM

// next item, IC50 requested
May I ask what IC50 has been recorded for C=CC(=O)NC1CCCC(Nc2nc(N[C@H]3CC[C@H](N(C)C)CC3)nc3c(CC)cnn23)C1 (stereo partly drawn) ?
> 1000 nM

---

Biological target: CDK9/CycT (Homo sapiens, UniProt P50750)
Sequence (P50750 whole entry): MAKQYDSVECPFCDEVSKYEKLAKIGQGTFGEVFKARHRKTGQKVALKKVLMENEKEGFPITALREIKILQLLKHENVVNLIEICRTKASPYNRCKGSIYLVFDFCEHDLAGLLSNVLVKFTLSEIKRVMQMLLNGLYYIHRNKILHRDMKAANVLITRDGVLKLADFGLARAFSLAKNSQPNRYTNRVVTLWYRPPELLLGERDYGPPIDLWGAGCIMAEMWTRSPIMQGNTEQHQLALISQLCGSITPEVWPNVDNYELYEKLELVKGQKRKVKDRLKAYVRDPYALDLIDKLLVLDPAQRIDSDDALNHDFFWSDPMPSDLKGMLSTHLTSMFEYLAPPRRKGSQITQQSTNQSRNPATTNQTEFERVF
Sequence (O60563 whole entry partner): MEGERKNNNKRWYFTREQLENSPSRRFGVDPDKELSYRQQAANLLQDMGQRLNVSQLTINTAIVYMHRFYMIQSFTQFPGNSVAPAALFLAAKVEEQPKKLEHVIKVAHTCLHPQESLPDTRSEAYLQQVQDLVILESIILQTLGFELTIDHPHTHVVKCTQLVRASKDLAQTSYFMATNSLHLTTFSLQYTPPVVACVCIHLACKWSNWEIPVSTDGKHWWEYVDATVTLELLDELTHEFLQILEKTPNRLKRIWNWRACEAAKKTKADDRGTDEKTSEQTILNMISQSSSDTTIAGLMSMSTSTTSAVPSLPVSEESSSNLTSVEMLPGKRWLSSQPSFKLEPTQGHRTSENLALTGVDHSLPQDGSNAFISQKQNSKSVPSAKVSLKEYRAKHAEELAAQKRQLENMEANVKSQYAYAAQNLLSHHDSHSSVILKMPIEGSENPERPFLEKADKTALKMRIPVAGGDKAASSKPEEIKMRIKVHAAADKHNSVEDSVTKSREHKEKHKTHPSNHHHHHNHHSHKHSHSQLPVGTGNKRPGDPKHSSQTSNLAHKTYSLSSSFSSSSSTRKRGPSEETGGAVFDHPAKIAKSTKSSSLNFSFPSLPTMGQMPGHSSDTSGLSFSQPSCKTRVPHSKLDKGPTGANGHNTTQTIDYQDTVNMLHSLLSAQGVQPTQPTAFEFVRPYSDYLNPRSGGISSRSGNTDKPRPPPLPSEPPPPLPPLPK
Test: CDK9/CycT inhibition (Tables A1, A2)
Test Readout: IC50 (nM)
Enter your answer as a number in nM; do not include the unit.

Example compounds with recorded IC50:
C=CC(=O)Nc1ccc(C(=O)Nc2cccc(Nc3nc(N4CCCCC4CCO)nc4c3ncn4C(C)C)c2)cc1 (stereo not drawn) [THZ-4-124-1] = 373
C=CC(=O)Nc1ccc(C(=O)N2CCCC(Nc3cc(NC4CCC(N(C)C)CC4)nc4c(CC)cnn34)C2)cc1 (stereo not drawn) [THZ-4-148-1] = 1710

// next item, IC50 requested
May I ask what IC50 has been recorded for C=CC(=O)Nc1cccc(Nc2cc(N3CCCCC3CCO)nc3c(CC)cnn23)c1 (stereo not drawn) [E-9(SB1-E-23)] ?
21.6

---

As shown below, each of these molecules has a reported pIC50 value.
Target: CDK7/CycH (Homo sapiens)
Assay: CDK7/CycH inhibition (Tables A1, A2)
Notebook: values listed as pIC50 are -log10 of the concentration (mol/L).

Example molecules with recorded pIC50:
C=CC(=O)Nc1ccc(C(=O)Nc2cccc(Nc3cc(N[C@H]4CC[C@H](N(C)C)CC4)nc4c(C(C)C)cnn34)c2)cc1 = 6.39
C=CC(=O)Nc1ccc(C(=O)Nc2cccc(Nc3nc(N[C@H]4CC[C@H](N(C)C)CC4)nc4c3ncn4C(C)C)c2)cc1 = 7.59
C=CC(=O)Nc1cccc(Nc2cc(N[C@H]3CC[C@H](N(C)C)CC3)nc3c(C(C)C)cnn23)c1 = 5.96
C=CC(=O)Nc1cccc(CNc2nc(N[C@H]3CC[C@H](N(C)C)CC3)nc3c(CC)cnn23)c1 = 7.63
C=CC(=O)Nc1cccc(Nc2cc(N3CCCCC3CCO)nc3c(CC)cnn23)c1 (stereo not drawn) [E-9(SB1-E-23)] = 5.96

May I ask what pIC50 has been recorded for C=CC(=O)Nc1cccc(Nc2cc(N3CCCC(N)C3)nc3c(CC)cnn23)c1 (stereo not drawn) ?
6.45
